# system under test: T1, SHANK1, Q9Y566
# T1 sequence (Q9Y566 658-767, limits assumed, looked up): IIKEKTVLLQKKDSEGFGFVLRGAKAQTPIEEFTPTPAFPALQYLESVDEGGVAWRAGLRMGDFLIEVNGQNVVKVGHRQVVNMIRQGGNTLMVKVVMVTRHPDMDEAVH
# experimental details: holdup assay
# Design: key: below the threshold = too weak to quantify, mostly under pKd 3.1 to 4
# recorded conditions: plain residues with an end cap or a label only (N-terminal biotin on a linker: ado-ado)
reported metric: pKd

{"binder": "EPAKETTTNV [SLC2A3, P11169]", "pKd": 3.68}
{"binder": "EFKQTSSFLV [JAM1, Q9Y624]", "pKd": "below the threshold"}
{"binder": "VCMGDHWFDV [PRKN, O60260]", "pKd": "below the threshold"}
{"binder": "SQDPKKPSRV [CBY2, Q8NA61]", "pKd": "below the threshold"}

Request: Return reported pKd; argument: RDYTQSSSSL [GRM5, P41594]
Response: 4.7

Request: How about PDSYHRRDFW [U2AF2, P26368] ?
Response: below the threshold

Data provenance is paper PMC9482650.
